# systemTested: Mu-type opioid receptor (Homo sapiens, UniProt P35372)
# Sequence (P35372 whole entry): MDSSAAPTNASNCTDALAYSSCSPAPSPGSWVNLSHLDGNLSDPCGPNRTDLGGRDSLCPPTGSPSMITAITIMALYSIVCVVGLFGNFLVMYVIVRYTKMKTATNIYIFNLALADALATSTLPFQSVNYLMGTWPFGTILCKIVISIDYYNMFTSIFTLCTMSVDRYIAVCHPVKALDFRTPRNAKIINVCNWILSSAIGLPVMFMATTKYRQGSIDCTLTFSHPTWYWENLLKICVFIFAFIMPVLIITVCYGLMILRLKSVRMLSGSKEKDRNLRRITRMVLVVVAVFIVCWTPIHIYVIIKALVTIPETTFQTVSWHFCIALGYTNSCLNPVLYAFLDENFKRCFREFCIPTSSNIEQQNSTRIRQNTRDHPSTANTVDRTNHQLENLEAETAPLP
# experimentNotes: Agonist activity at human mu opioid receptor expressed in CHO cell membranes assessed as stimulation of [35S]GTPgammaS binding incubated for 2 hrs by scintillation counting method
pEC50: −log10 of the molar value.
readoutType: pEC50

O=C(Cc1ccccc1)N[C@H]1C[C@]23CCN(CC4CC4)[C@H](Cc4ccc(O)cc42)[C@]32CC[C@@H]1O2    8.27
O=C(CCc1ccccc1)N[C@@H]1C[C@]23CCN(CC4CC4)[C@H](Cc4ccc(O)cc42)[C@]32CC[C@@H]1O2    7.90
O=C(N[C@@H]1C[C@]23CCN(CC4CC4)[C@H](Cc4ccc(O)cc42)[C@]32CC[C@@H]1O2)c1ccccc1    8.57
O=C(CCc1ccccc1)N[C@H]1C[C@]23CCN(CC4CC4)[C@H](Cc4ccc(O)cc42)[C@]32CC[C@@H]1O2    8.03

This collection of values is drawn from ChEMBL document CHEMBL5143548.
